- Tested on: 922993-354-T-J3-PDC complex spheroids, viability;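 also: spheroids exposed to compounds for seven days; 100% = DMSO vehicle control viability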
- assay.remarks: Anticancer human tumor 922993-354-T-J3-PDC patient-derived endometrial carcinoma cell line growth inhibition [GQUAD]; active = viability on the fitted dose curve at most 10% of control; inactive = the rest
- experimental.parameters: second compound 0.0316 µM; first compound 10 µM
Just give me one of these, please: 1 (yes) = active, 0 (no) = inactive

Some solved cases for reference:
>  <compound>
O=C(c1cc(Cc2n[nH]c(=O)c3ccccc23)ccc1F)N1CCN(C(=O)C2CC2)CC1 + CN(C)c1ccc(Nc2c3ccc(NC(=O)CCN4CCCC4)cc3nc3cc(NC(=O)CCN4CCCC4)ccc23)cc1

>  <class.name>
0 (no)

$$$$
>  <compound>
O=C(NO)c1cnc(N2CCN(S(=O)(=O)c3ccc4ccccc4c3)CC2)nc1 + Cc1cnc(CNC(=O)c2c(=O)c3ccc(N4CCCN(C)CC4)nc3n3c2sc2ccccc23)cn1

>  <class.name>
1 (yes)

$$$$

I'd appreciate the recorded outcome for O=C(c1cc(Cc2n[nH]c(=O)c3ccccc23)ccc1F)N1CCN(C(=O)C2CC2)CC1 + Cc1[nH]c2ccc(F)cc2c1-c1nc2c3cccnc3c3ncccc3c2[nH]1 from this test.
0 (no)

// provenance: PubChem BioAssay AID2060489
